Test: Aqueous solubility assay in Normal Ringer Solution
Details: Normal Ringer Solution, saline or isotonic, kinetic from dmso stock
VALUE_TYPE: solubility at 40 min

Incoming: Consider the compound OCCc1cc(Oc2ccccc2F)ccc1N1CC[C@H](Oc2ncccc2F)C1 [Compound 1-313] and give its measured solubility at 40 min.
Outgoing: ~2 µM

Incoming: Consider the compound NC(=O)c1cc(-c2ccccc2)ccc1N1CC[C@H](Nc2ncccc2Cl)C1 [Compound 1-377] and give its measured solubility at 40 min.
Outgoing: > 3.2 µM

Incoming: Consider the compound CCc1ccccc1Oc1ccc(N2CC[C@H](Oc3ccccn3)C2)c(CO)c1 [Compound 1-275] and give its measured solubility at 40 min.
Outgoing: ~1 µM

Incoming: Consider the compound OCc1cc(Oc2ccccc2F)ccc1N1CC[C@H](Oc2ncccc2Cl)C1 [Compound 1-270] and give its measured solubility at 40 min.
Outgoing: 1 µM

Incoming: Consider the compound CN(C)C(=O)c1ccccc1-c1ccc(N2CC[C@H](Oc3ccc(C(F)(F)F)cn3)C2)c(CO)c1 [Compound 1-167] and give its measured solubility at 40 min.
Outgoing: > 12.6 µM

Incoming: Consider the compound CC(C)c1ccccc1-c1ccc(C2CCN(C(=O)c3ccc(Cl)cn3)C2)c(C(N)=O)c1 (stereo not shown) [Compound 2-35] and give its measured solubility at 40 min.
Outgoing: ~3.3 µM

Incoming: Consider the compound CC(C)c1ccccc1Oc1ccc(N2CC[C@H](Oc3ccccn3)C2)c(CO)c1 [Compound 1-316] and give its measured solubility at 40 min.
Outgoing: > 4 µM

Incoming: Consider the compound COc1ccccc1Oc1ccc(N2CC[C@H](Oc3ccc(C)cn3)C2)c(CO)n1 [Compound 1-205] and give its measured solubility at 40 min.
Outgoing: > 7.2 µM

Incoming: Consider the compound Cc1ccccc1C(=O)c1ccc(N2CC[C@H](Oc3ncccc3Cl)C2)c(CO)c1 [Compound 1-246] and give its measured solubility at 40 min.
Outgoing: ~1.87 µM

Incoming: Consider the compound NC(=O)c1cc(C(=O)c2ccccc2)ccc1N1CC[C@H](Oc2ccc(C(F)(F)F)cn2)C1 [Compound 1-130] and give its measured solubility at 40 min.
Outgoing: ~12.2 µM

Incoming: Consider the compound CCOc1ccccc1-c1ccc(C2CCN(C(=O)c3ccc(Cl)cn3)C2)c(CO)c1 (stereo not shown) [Compound 2-69] and give its measured solubility at 40 min.
Outgoing: > 16 µM

Incoming: Consider the compound OCc1cc([C@H](O)c2ccccc2Cl)ccc1N1CC[C@H](Oc2ncccc2F)C1 [Compound 1-322] and give its measured solubility at 40 min.
Outgoing: > 9.3 µM

Incoming: Consider the compound CCc1ccccc1-c1ccc(C2CCN(C(=O)c3ccc(C(F)(F)F)cn3)C2)c(CO)c1 (stereo not shown) [Compound 2-47] and give its measured solubility at 40 min.
Outgoing: ~5.6 µM

Incoming: Consider the compound CCc1ccccc1Oc1ccc(N2CC[C@H](Oc3ncccc3C)C2)c(CO)c1 [Compound 1-268] and give its measured solubility at 40 min.
Outgoing: 0.25 µM

Incoming: Consider the compound Cc1ccc(O[C@H]2CCN(c3ccc(-c4ccccc4CN(C)C)cc3CO)C2)nc1 [Compound 1-219] and give its measured solubility at 40 min.
Outgoing: > 20 µM

Incoming: Consider the compound CC(C)c1ccccc1Oc1ccc(C2CCN(C(=O)c3ccc(F)cn3)C2)c(CO)c1 (stereo not shown) [Compound 2-16] and give its measured solubility at 40 min.
Outgoing: ~4.7 µM

* * *

Target: human hERG channels (Homo sapiens (Human))
Sequence (Q12809 whole entry): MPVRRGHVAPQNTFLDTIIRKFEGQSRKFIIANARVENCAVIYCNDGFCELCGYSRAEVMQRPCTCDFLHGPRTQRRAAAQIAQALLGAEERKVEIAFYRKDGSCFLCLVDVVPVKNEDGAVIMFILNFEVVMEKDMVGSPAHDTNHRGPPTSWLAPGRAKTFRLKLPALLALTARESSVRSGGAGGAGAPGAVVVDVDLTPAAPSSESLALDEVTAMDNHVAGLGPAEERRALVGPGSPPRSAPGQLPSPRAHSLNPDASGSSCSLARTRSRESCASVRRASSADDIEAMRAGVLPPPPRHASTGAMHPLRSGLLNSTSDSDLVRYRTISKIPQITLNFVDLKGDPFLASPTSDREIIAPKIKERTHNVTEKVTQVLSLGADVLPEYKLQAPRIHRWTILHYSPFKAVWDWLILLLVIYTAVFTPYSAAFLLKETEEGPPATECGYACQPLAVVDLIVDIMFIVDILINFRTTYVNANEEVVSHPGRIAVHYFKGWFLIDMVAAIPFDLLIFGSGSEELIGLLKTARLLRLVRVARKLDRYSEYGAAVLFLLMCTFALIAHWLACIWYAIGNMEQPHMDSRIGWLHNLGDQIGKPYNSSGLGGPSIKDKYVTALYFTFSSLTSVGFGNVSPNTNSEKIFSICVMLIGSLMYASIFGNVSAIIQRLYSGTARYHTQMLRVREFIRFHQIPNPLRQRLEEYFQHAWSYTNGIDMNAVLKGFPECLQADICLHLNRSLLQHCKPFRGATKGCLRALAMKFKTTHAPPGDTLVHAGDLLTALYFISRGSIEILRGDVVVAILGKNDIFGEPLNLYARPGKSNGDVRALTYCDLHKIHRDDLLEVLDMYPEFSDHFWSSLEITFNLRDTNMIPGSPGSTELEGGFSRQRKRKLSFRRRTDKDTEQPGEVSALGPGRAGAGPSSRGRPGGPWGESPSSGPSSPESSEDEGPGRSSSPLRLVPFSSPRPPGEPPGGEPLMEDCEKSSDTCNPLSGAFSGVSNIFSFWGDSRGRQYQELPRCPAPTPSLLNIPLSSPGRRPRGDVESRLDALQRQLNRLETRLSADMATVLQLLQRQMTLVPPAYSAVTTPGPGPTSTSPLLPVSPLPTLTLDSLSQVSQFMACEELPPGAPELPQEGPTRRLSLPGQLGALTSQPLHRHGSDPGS
Test: hERG assay (patch clamp, CHO cells)
Type: cell-based
Conditions: (PL); read-out: hERG
VALUE_TYPE: IC50

Incoming: Consider the molecule OCc1cc([C@@H](O)c2ccccc2Cl)ccc1N1CC[C@H](Oc2ncccc2F)C1 [Compound 1-321] and give its measured IC50.
Outgoing: ~3.73 µM

* * *

Molecular target: hTRPV3 (Homo sapiens (Human), UniProt Q8NET8)
Sequence (Q8NET8 whole entry): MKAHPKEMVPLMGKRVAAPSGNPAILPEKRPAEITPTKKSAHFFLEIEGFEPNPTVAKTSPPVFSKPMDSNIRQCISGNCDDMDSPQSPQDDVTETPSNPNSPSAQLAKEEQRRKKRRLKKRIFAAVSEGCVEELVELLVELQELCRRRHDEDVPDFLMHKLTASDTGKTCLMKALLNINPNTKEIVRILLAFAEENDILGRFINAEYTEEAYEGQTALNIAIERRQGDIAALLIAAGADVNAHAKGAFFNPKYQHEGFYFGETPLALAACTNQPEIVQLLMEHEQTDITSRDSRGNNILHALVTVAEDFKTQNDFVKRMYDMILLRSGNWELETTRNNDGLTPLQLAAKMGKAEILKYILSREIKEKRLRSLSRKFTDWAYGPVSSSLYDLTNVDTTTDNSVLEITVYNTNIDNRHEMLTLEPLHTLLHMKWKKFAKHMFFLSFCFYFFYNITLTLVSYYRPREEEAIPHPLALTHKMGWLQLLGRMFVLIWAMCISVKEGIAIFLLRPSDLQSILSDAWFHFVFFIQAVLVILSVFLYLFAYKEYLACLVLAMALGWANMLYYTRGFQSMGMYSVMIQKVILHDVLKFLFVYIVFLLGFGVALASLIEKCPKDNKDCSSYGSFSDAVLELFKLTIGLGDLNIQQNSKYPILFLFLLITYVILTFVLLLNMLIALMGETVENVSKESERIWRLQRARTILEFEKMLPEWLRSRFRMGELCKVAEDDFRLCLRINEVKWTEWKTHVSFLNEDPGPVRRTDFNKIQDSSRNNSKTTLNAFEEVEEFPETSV
Experiment: Whole-cell patch clamp, hTRPV3 Phase 1 / Phase 2 currents
Format: cell-based
Conditions: Phase 1 current, inward, whole-cell patch clamp; read-out: hTRPV3 Patch P1 Inwd
pIC50: −log10 of the molar value.
VALUE_TYPE: pIC50

Incoming: Consider the molecule CCc1ccccc1Oc1ccc(C2CC(=O)N(Cc3cccc(C)n3)C2)c(C(N)=O)c1 (stereo not shown) [Compound 2-98] and give its measured pIC50.
Outgoing: < 6.00

Incoming: Consider the molecule Cc1ccc(C(=O)c2ccc(C3CCN(C(=O)c4ncccc4Cl)C3)c(CO)c2)cc1 (stereo not shown) [Compound 2-7] and give its measured pIC50.
Outgoing: < 6.00

Incoming: Consider the molecule CCc1ccccc1-c1ccc(N2CC[C@H](Oc3ccc(Cl)cn3)C2)c(CO)n1 [Compound 1-201] and give its measured pIC50.
Outgoing: < 6.00

Incoming: Consider the molecule Cc1ccc(O[C@H]2CCN(c3ccc(-c4ccccc4C#N)nc3CO)C2)nc1 [Compound 1-190] and give its measured pIC50.
Outgoing: < 6.00

Incoming: Consider the molecule CCc1ccccc1Oc1ccc(C2CC(=O)N(Cc3ccc(Cl)cn3)C2)c(C(N)=O)c1 (stereo not shown) [Compound 2-101] and give its measured pIC50.
Outgoing: < 6.00

Incoming: Consider the molecule CCOc1ccccc1-c1ccc(C2CCN(C(=O)c3ccc(Cl)cn3)C2)c(CO)c1 (stereo not shown) [Compound 2-69] and give its measured pIC50.
Outgoing: 7.00 to 8.00

Incoming: Consider the molecule OCc1cc(Oc2ccc(Cl)c(C(F)(F)F)c2)ccc1N1CC[C@H](Oc2ccccn2)C1 [Compound 1-303] and give its measured pIC50.
Outgoing: 7.00 to 8.00

Incoming: Consider the molecule OCc1cc(-c2ccccc2)ccc1N1CC[C@H](Oc2ccc(Cl)cn2)C1 [Compound 1-147] and give its measured pIC50.
Outgoing: 6.00 to 7.00

Incoming: Consider the molecule OCc1cc(C2=CCOCC2)ccc1N1CC[C@H](Oc2ccc(C(F)(F)F)cn2)C1 [Compound 1-280] and give its measured pIC50.
Outgoing: < 6.00

Incoming: Consider the molecule O=C(c1ccc(F)cn1)N1CCC(c2ccc(-c3ccccc3)nc2CO)C1 (stereo not shown) [Compound 2-80] and give its measured pIC50.
Outgoing: 6.00 to 7.00

Incoming: Consider the molecule CC(O)c1cc(F)ccc1-c1ccc(C2CCN(C(=O)c3ccc(Cl)cn3)C2)c(CO)c1 (stereo not shown) [Compound 2-71] and give its measured pIC50.
Outgoing: 6.00 to 7.00

Incoming: Consider the molecule OCc1cc(-c2ccccc2F)ccc1N1CC[C@H](Oc2ccc(C(F)(F)F)cn2)C1 [Compound 1-150] and give its measured pIC50.
Outgoing: 7.00 to 8.00

Incoming: Consider the molecule O=C(c1ncccc1Cl)N1CCC(c2ccc(C(O)c3ccccc3F)cc2CO)C1 (stereo not shown) [Compound 2-5] and give its measured pIC50.
Outgoing: < 6.00

Incoming: Consider the molecule CC(C)c1ccccc1Oc1ccc(C2CCN(C(=O)c3ccccn3)C2)c(C(N)=O)c1 (stereo not shown) [Compound 2-31] and give its measured pIC50.
Outgoing: < 6.00

Incoming: Consider the molecule O=C(c1ccc(N2CC[C@H](Nc3ccc(F)cn3)C2)c(CCO)c1)c1ccccc1Cl [Compound 1-389] and give its measured pIC50.
Outgoing: < 6.00

Incoming: Consider the molecule OCCCc1cc(-c2ccccc2)ccc1N1CC[C@H](Oc2ccc(C(F)(F)F)cn2)C1 [Compound 1-138] and give its measured pIC50.
Outgoing: 6.00 to 7.00

* * *

Exercise: for every item that follows, state its recorded log10(IC50).
Target: hTRPV3 (Homo sapiens (Human), UniProt Q8NET8)
Experiment: Whole-cell patch clamp, hTRPV3 Phase 1 / Phase 2 currents
Format: cell-based
Conditions: Phase 2 current, human TRPV3; read-out: hTRPV3 (nM) Phase 2
Please interpret these as log10 of IC50 where IC50 is in nM.

Incoming: Consider the compound O=C(c1ncccc1F)N1CCC(c2ccc(-c3ccccc3C3CC3)cc2CO)C1 (centres unmarked) and give its measured log10(IC50).
Outgoing: 1.74

Incoming: Consider the compound CC(C)c1ccccc1-c1ccc(C2CCN(C(=O)c3ccc(Cl)cn3)C2)c(C(N)=O)c1 (centres unmarked) and give its measured log10(IC50).
Outgoing: 1.81

Incoming: Consider the compound O=C(c1ccc(C(F)(F)F)cn1)N1CCC(c2ccc(-c3ccccc3)nc2CO)C1 (centres unmarked) and give its measured log10(IC50).
Outgoing: 2.47

Incoming: Consider the compound CC(C)c1ccccc1Oc1ccc(C2CCN(C(=O)Cc3ccccn3)C2)c(CO)c1 (centres unmarked) and give its measured log10(IC50).
Outgoing: 3.41

Incoming: Consider the compound CC(C)c1ccccc1Oc1ccc(C2CCN(C(=O)Cc3ncccc3Cl)C2)c(CO)c1 (centres unmarked) and give its measured log10(IC50).
Outgoing: 3.42

Incoming: Consider the compound CC(C)c1ccccc1Oc1ccc(C2CCN(C(=O)c3ccc(F)cn3)C2)c(CO)c1 (centres unmarked) and give its measured log10(IC50).
Outgoing: 1.41

Incoming: Consider the compound CC(C)c1ccccc1Oc1ccc(C2CC(=O)N(Cc3ncccc3Cl)C2)c(CO)c1 (centres unmarked) and give its measured log10(IC50).
Outgoing: 2.26

Incoming: Consider the compound CC(O)c1cc(F)ccc1-c1ccc(C2CCN(C(=O)c3ccc(Cl)cn3)C2)c(CO)c1 (centres unmarked) and give its measured log10(IC50).
Outgoing: 2.76

FYI, the data here is from patent US12435061B2.
